- target.entity: α3β4 nAChRs (Homo sapiens (Human), UniProt P30926+P32297)
- Sequence (P32297 32-505): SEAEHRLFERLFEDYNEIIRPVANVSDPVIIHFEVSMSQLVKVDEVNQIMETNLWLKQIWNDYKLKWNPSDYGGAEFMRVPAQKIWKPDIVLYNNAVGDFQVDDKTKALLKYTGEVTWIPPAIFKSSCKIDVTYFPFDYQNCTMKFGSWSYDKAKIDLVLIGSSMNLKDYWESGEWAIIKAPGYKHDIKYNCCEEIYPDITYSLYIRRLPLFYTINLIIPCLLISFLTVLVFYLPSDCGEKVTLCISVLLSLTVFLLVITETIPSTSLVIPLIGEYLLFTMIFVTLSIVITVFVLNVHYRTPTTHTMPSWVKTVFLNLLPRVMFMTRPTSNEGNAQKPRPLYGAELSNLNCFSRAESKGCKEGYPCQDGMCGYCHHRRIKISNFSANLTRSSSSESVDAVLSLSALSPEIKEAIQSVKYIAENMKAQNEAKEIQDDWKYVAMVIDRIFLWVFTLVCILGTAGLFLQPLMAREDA
- Sequence (P30926 22-498): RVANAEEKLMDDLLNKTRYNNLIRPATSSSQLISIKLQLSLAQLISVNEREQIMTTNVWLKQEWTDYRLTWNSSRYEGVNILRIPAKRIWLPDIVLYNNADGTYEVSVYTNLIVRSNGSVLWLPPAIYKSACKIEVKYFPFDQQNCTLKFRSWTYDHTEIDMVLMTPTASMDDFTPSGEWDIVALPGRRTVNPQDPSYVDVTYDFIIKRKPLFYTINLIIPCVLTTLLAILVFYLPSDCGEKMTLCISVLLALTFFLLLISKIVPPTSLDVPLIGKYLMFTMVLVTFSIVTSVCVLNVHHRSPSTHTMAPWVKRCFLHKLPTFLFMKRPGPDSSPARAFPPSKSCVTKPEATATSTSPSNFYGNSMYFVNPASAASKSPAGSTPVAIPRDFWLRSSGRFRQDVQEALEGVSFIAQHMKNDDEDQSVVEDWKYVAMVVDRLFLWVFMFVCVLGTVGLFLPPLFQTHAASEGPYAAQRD
- assay.name: Maximal gating efficacy on α3β4 nAChRs in Xenopus oocytes, two electrode voltage clamp
- Format: cell-based
- protocol.conditions: maximal current relative to 1 mM ACh
Entries and their Relative efficacy (ACh)
measurement.kind: Relative efficacy (ACh)

| molecule | measurement.kind | result |
| --- | --- | --- |
| CC(=O)NCc1cc2n(c(=O)c1)CC1CNC[C@@H]2C1.Cl (single isomer, unassigned; (-)) | Relative efficacy (ACh) | 0.034 ± 0.038 |
| CCc1cc2n(c(=O)c1)CC1CNC[C@@H]2C1.Cl (single isomer, unassigned; (-)) [Compound 118, (−)4-Ethylcytisine] | Relative efficacy (ACh) | 0.086 ± 0.106 |
| Cl.O=c1c(C(F)(F)F)c(Br)cc2n1CC1CNC[C@@H]2C1 (single isomer, unassigned; (-)) [Compound 162, (−)3-(Trifluoromethyl)-4-bromocytisine] | Relative efficacy (ACh) | 0.250 ± 0.077 |
| COC(=O)c1cc2n(c(=O)c1)CC1CNC[C@@H]2C1 (single isomer, unassigned; (-)) [Compound 119, (−)4-carboxymethycytisine] | Relative efficacy (ACh) | 0.040 ± 0.049 |
| CCc1cc2n(c(=O)c1Br)CC1CNCC2C1 (single isomer, unassigned; (-)) [BS74, (−)-(3-bromo-4-ethyl)cytisine] | Relative efficacy (ACh) | 1.75 ± 0.56 |
| CNc1cc2n(c(=O)c1Br)CC1CNC[C@@H]2C1 (single isomer, unassigned; (+)) [Compound 158, (+)3-Bromo-4-N-methylaminocytisine] | Relative efficacy (ACh) | 0.057 ± 0.016 |
| CN(Cc1cc2n(c(=O)c1)CC1CNC[C@@H]2C1)Cc1cc2n(c(=O)c1)CC1CNC[C@@H]2C1 (stereo in doubt) | Relative efficacy (ACh) | 0.012 ± 0.007 |
| CNc1cc2n(c(=O)c1)CC1CNC[C@@H]2C1 (single isomer, unassigned; (+)) [Compound 84, (+)4-(N-Methylamino)cytisine] | Relative efficacy (ACh) | 0.0233 ± 0.005 |
| CC(=O)OCC[N+](C)(C)C [ACh, reference compound] | Relative efficacy (ACh) | 1.0 |
| O=c1c(Br)c(O)cc2n1CC1CNCC2C1 (single isomer, unassigned; (-)) [BS70, (−)-(3-bromo-4-hydroxy)cytisine] | Relative efficacy (ACh) | 0.108 ± 0.149 |
| Nc1cc2n(c(=O)c1)CC1CNC[C@@H]2C1 (single isomer, unassigned; (+)) [Compound 81, (+)4-aminocytisine] | Relative efficacy (ACh) | 0.0210 ± 0.008 |
| Cl.O=c1cc(CO)cc2n1CC1CNC[C@@H]2C1 (single isomer, unassigned; (-)) [Compound 122, (−)4-(Hydroxymethyl)cytisine] | Relative efficacy (ACh) | 0.015 ± 0.020 |
| O=c1cc(O)cc2n1CC1CNC[C@@H]2C1 (single isomer, unassigned; (+)) [Compound 67, (+)4-Hydroxycytisine] | Relative efficacy (ACh) | 0.047 ± 0.036 |

---

- target.entity: Rat α7 (Rattus norvegicus (Rat), UniProt Q05941)
- Sequence (Q05941 23-502 limits assumed): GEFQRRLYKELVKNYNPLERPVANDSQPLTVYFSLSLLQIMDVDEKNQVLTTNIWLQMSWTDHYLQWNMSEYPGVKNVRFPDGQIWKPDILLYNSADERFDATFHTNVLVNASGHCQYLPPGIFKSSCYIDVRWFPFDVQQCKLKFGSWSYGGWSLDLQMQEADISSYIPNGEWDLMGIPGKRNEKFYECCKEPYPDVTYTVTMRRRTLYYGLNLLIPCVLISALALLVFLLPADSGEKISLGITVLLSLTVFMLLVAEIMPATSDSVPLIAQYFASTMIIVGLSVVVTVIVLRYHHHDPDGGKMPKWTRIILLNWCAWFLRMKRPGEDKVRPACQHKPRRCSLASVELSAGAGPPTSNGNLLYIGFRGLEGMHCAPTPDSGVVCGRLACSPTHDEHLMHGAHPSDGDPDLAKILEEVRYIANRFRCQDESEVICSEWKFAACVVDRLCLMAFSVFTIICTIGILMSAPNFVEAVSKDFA
pKi: −log10 of the molar value.

| compound | pKi |
| --- | --- |
| O=c1cccc2n1C[C@@H]1CNC[C@H]2C1 [Cytisine, cytisine] | 6.18 |
